Task for the reader: assign each of the following molecules its reported IC50.
- target.system: K-Ras G13C (Homo sapiens (Human), UniProt P01116+P62937, G13C)
- Sequence (P01116-2 other isoform, or with tags, fused parts or gaps G13C): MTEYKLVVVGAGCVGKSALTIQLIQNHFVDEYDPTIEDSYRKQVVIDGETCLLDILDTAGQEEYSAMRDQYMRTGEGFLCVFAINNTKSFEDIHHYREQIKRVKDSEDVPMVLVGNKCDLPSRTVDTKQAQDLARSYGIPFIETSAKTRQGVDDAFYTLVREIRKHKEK
- Sequence (P62937 whole entry): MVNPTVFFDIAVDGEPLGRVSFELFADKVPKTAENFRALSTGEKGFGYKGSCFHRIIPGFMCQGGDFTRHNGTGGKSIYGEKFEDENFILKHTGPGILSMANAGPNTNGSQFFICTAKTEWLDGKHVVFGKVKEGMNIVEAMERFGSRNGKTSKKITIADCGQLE
- method.description: Ras-Raf (BRAF RBD) disruption / FRET / MOA assay, KRAS G13C
- Assay type: biochemical
- condition.details: KRAS G13C; Ras-Raf disruption/FRET/MOA assay; read-out: IC50* KRAS G13C FRET data

Worked examples follow.
# molecule, IC50
rows = [
    ("CCn1c(-c2cnccc2[C@H](C)OC)c2c3cc(ccc31)-c1cc(O)cc(c1)C[C@H](NC(=O)[C@H](C(C)C)N(C)C(=O)[C@H]1CCN(C(=O)C#CCN(C)C)C1)C(=O)N1CCC[C@H](N1)C(=O)OCC(C)(C)C2", "10 to 100 nM"),
    ("C=CC(=O)N1C[C@@H](C)N(C(=O)N(C)[C@H](C(=O)N[C@H]2Cc3nc(cs3)-c3ccc4c(c3)c(c(-c3cccnc3[C@H](C)OC)n4CC)CC(C)(C)COC(=O)[C@@H]3CCCN(N3)C2=O)C(C)C)C[C@@H]1C (atropisomer, axis not shown)", "10 to 100 nM"),
    ("CCn1c(-c2cccnc2[C@H](C)OC)c2c3cc(ccc31)-c1cccc(c1)C[C@H](NC(=O)CCOC1CN(C(=O)C#CC(C)(C)N3CCC3)C1)C(=O)N1CCC[C@H](N1)C(=O)OCC(C)(C)C2 (atropisomer, axis not shown)", "> 10000 nM"),
]

I'm hoping you can list IC50 for every molecule here, please.
1. C=CC(=O)N1CC[C@H](C(=O)N(C)[C@H](C(=O)N[C@H]2Cc3cc(C(F)F)cc(n3)-c3ccc4c(c3)c(c(-c3cccnc3[C@H](C)OC)n4CC)CC(C)(C)COC(=O)[C@@H]3CCCN(N3)C2=O)C(C)C)C1 (atropisomer, axis not shown)
2. CC#CC(=O)N1CC2(CCN2C(=O)N(C)[C@H](C(=O)N[C@H]2Cc3nc(cs3)-c3ccc4c(c3)c(c(-c3cccnc3[C@H](C)OC)n4CC)CC(C)(C)COC(=O)[C@@H]3CCCN(N3)C2=O)C(C)C)C1 (atropisomer, axis not shown)
3. C=CC(=O)N1CC[C@]2(C1)OCN([C@H](C(=O)N[C@H]1Cc3cccc(c3)-c3ccc4c(c3)c(c(-c3cccnc3[C@H](C)OC)n4CC)CC(C)(C)COC(=O)[C@@H]3CCCN(N3)C1=O)C(C)C)C2=O (atropisomer, axis not shown)
4. C=CC(=O)N1CC[C@H](C(=O)N(C)[C@H](C(=O)N[C@H]2Cc3cc(O)cc(c3)-c3ccc4c(c3)c(c(-c3cccc(=O)n3C(C)C)n4CC)CC(C)(C)COC(=O)[C@@H]3CCCN(N3)C2=O)C(C)C)C1
5. C=CC(=O)N1CC[C@H](C(=O)N(C)[C@H](C(=O)N[C@H]2Cc3nc(n(C)n3)-c3ccc4c(c3)c(c(-c3cccnc3[C@H](C)OC)n4CC)CC(C)(C)COC(=O)[C@@H]3CCCN(N3)C2=O)C(C)C)C1 (atropisomer, axis not shown)

1000 to 10000 nM
100 to 1000 nM
100 to 1000 nM
> 10000 nM
100 to 1000 nM

----------
Please respond with reported IC50 for every item in the list.
- target.system: KRAS G12V (Homo sapiens (Human), UniProt P01116+P62937, G12V)
- Sequence (P01116-2 other isoform, or with tags, fused parts or gaps G12V, one chain of several): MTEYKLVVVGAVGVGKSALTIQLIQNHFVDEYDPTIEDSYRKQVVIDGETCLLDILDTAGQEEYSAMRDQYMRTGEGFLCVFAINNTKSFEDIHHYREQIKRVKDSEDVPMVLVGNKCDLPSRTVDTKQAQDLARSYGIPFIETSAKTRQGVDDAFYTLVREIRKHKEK
- method.description: Ras-Raf (BRAF RBD) disruption / FRET / MOA assay, KRAS G12V
- Assay type: biochemical
- condition.details: read-out: IC50* KRAS G12V FRET data

# molecule, result
data = [
    ("C=CC(=O)N1CC[C@H](C(=O)N(C)[C@H](C(=O)N[C@H]2Cc3cc(O)cc(c3)-c3ccc4c(c3)c(c(-c3cccc(=O)n3C(C)C)n4CC)CC(C)(C)COC(=O)[C@@H]3CCCN(N3)C2=O)C(C)C)C1 [Example A151]", "1000 to 10000 nM"),
]

Batch of 4 molecules: report IC50 for each.
1. C=CC(=O)N1CC2(C1)CN(C(=O)N(C)[C@H](C(=O)N[C@H]1Cc3nc(cs3)-c3ccc4c(c3)c(c(-c3cccnc3[C@H](C)OC)n4CC)CC(C)(C)COC(=O)[C@@H]3CCCN(N3)C1=O)C(C)C)CCO2 (atropisomer, axis not shown) [Example A431]
2. C=CC(=O)N1CC[C@H](C(=O)N(C)[C@H](C(=O)N[C@H]2Cc3cccc(c3)-c3ccc4c(c3)c(c(-c3cccnc3[C@H](C)OC)n4CC)CC(C)(C)COC(=O)[C@@H]3CCCN(N3)C2=O)C(C)C)[C@@H]1C (atropisomer, axis not shown) [Example A480]
3. C=CC(=O)N1CC[C@H](C(=O)N(C)[C@H](C(=O)N[C@H]2Cc3cc(O)cc(c3)-c3ccc4c(c3)c(c(-c3ccc(COC)cc3CN(C)C)n4CC)CC(C)(C)COC(=O)[C@@H]3CCCN(N3)C2=O)C(C)C)C1 [Example A127]
4. C=CC(=O)N1CCC2(CC1)CN(C(=O)N(C)[C@H](C(=O)N[C@H]1Cc3nc(cs3)-c3ccc4c(c3)c(c(-c3cccnc3[C@H](C)OC)n4CC)CC(C)(C)COC(=O)[C@@H]3CCCN(N3)C1=O)C(C)C)C2 (atropisomer, axis not shown) [Example A702]

100 to 1000 nM
> 10000 nM
100 to 1000 nM
100 to 1000 nM

Go through the items and report each one's IC50.
1. CCn1c(-c2cccnc2[C@H](C)OC)c2c3cc(ccc31)-c1cccc(c1)C[C@H](NC(=O)[C@H](C(C)C)N(C)C(=O)[C@H]1CCN(C(=O)C#CC3CCO3)C1)C(=O)N1CCC[C@H](N1)C(=O)OCC(C)(C)C2 (mixture of isomers) [Example A509]
2. C=CC(=O)N1CC[C@H]2[C@@H]1CN2C(=O)N(C)[C@H](C(=O)N[C@H]1Cc2nc(cs2)-c2ccc3c(c2)c(c(-c2cccnc2[C@H](C)OC)n3CC)CC(C)(C)COC(=O)[C@@H]2CCCN(N2)C1=O)C(C)C (atropisomer, axis not shown) [Example A547]
3. C=CC(=O)N1CC[C@H](C(=O)N(C)[C@H](C(=O)N[C@H]2Cc3cc(O)cc(c3)-c3ccc4nc(-c5cccnc5[C@H](C)OC)n(c4c3)CC(C)(C)COC(=O)[C@@H]3CCCN(N3)C2=O)C(C)C)C1 [Example A242]

1000 to 10000 nM
1000 to 10000 nM
1000 to 10000 nM

----------
- target.system: NRAS G12C (Homo sapiens (Human), UniProt P01111+P62937, G12C)
- Sequence (P01111 whole entry G12C, one chain of several): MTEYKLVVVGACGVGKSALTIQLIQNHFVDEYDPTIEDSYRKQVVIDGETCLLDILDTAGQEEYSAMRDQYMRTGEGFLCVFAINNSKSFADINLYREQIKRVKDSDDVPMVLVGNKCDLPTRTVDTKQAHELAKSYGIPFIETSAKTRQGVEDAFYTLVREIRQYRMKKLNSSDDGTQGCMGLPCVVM
- method.description: Ras-Raf (BRAF RBD) disruption / FRET / MOA assay, NRAS G12C
- Format: biochemical
- condition.details: read-out: IC50* NRAS G12C FRET data
outcome.measure: IC50

Look over these answered cases.
# compound, result
records = [
    ("C=CC(=O)N1CCO[C@H]2CN(C(=O)N(C)[C@H](C(=O)N[C@H]3CC4=NN=C(O4)c4ccc5c(c4)c(c(-c4cccnc4[C@H](C)OC)n5CC(F)(F)F)CC(C)(C)COC(=O)[C@@H]4CCCN(N4)C3=O)C(C)C)C[C@H]21 (atropisomer, axis not shown) [Example A576]", "100 to 1000 nM"),
    ("CCn1c(-c2cccnc2COC)c2c3cc(ccc31)-c1cc(C)cc(c1)C[C@H](NC(=O)[C@H](C(C)C)N(C)C(=O)[C@H]1CCN(C(=O)C#CCN(C)C)C1)C(=O)N1CCC[C@H](N1)C(=O)OCC(C)(C)C2 [Example A156]", "100 to 1000 nM"),
    ("CCn1c(-c2cccnc2[C@H](C)OC)c2c3cc(ccc31)-c1cc(O)cc(c1)C[C@H](NC(=O)[C@H](C(C)C)N(C)C(=O)[C@H]1CCN(C(=O)C#CC(C)(C)N(C)C)C1)C(=O)N1CCC[C@H](N1)C(=O)OCC(C)(C)C2 (atropisomer, axis not shown) [Example A292]", "< 10 nM"),
    ("CO[C@@H](C)c1ncccc1-c1c2c3cc(ccc3n1CC(F)(F)F)-c1cc(cc(C(F)F)c1)C[C@H](NC(=O)[C@H](C(C)C)N(C)C(=O)[C@H]1CCN(C(=O)C#CC(C)(C)N3CCC3)C1)C(=O)N1CCC[C@H](N1)C(=O)OCC(C)(C)C2 (atropisomer, axis not shown) [Example A370]", "10 to 100 nM"),
    ("CCn1c(-c2cccnc2[C@H](C)OC)c2c3cc(ccc31)-c1cc(cc(C(F)F)c1)C[C@H](NC(=O)[C@H](C1CCCC1)N(C)C(=O)[C@H]1CCN(C(=O)C#CC(C)(C)N3CCC3)C1)C(=O)N1CCC[C@H](N1)C(=O)OCC(C)(C)C2 (atropisomer, axis not shown) [Example A456]", "10 to 100 nM"),
    ("CCn1c(-c2cccnc2[C@H](C)OC)c2c3cc(ccc31)-c1cccc(c1)C[C@H](NC(=O)[C@H](C(C)C)N1CC[C@]3(CCN(C(=O)C#C[C@H]4COCCN4C)C3)C1=O)C(=O)N1CCC[C@H](N1)C(=O)OCC(C)(C)C2 (atropisomer, axis not shown) [Example A592]", "10 to 100 nM"),
]

Recorded IC50 (compound C=CC(=O)N1CCO[C@@H]2CCN(C(=O)N(C)[C@H](C(=O)N[C@H]3Cc4nc(cs4)-c4ccc5c(c4)c(c(-c4cccnc4[C@H](C)OC)n5CC)CC(C)(C)COC(=O)[C@@H]4CCCN(N4)C3=O)C(C)C)C[C@@H]21 (atropisomer, axis not shown) [Example A581] ): 10 to 100 nM

These data points were gathered from patent US11566007B2.
